The values you see were collected from PubChem BioAssay AID1159580.

- METHOD SUMMARY: chemical genetic growth profiling, strain panel (AID 1159580);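 further: tested at 20 µM; growth read once vehicle control cultures reached saturation at 30 °C; lower values mean less growth of the strain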
- DETAILS: S. cerevisiae deletion strains, growth OD, locus YCL029C, strain bik1
About 2,000 (36%) of roughly 5,500 compounds were called active. Roughly 18% stayed inconclusive and do not appear here. No stated cut-off is given here; in the data, active means normalized growth mostly below about 0.91 (no sharp cut-off); inconclusive means no clear call, values can overlap the other calls; inactive means mostly above about 0.92. Some of the results follow.
Valid outcomes are listed here; reply with one: active, inactive

Consider the following illustrative entries.
[
  {
    "COMPOUND": "CCOC(=O)C1C(C=C(C)C)C1(C)C (stereo unspecified)",
    "LABEL": "inactive"
  },
  {
    "COMPOUND": "CN1CCOC(c2ccccc2)c2ccccc2C1 (stereo unspecified)",
    "LABEL": "inactive"
  },
  {
    "COMPOUND": "COc1cc([C@@H]2c3cc4c(cc3[C@H](O)[C@H]3COC(=O)[C@@H]23)OCO4)cc(OC)c1OC",
    "LABEL": "inactive"
  }
]

Query :: Which outcome was assigned to `Cc1cc(=O)c2c(o1)-c1c(cc(O)c(O)c1C(=O)O)OC2` in this test?
Result :: inactive

Query :: Which outcome was assigned to `O=c1oc2ccccc2c(O)c1Cc1c(O)c2ccccc2oc1=O` in this test?
Result :: inactive

Query :: Which outcome was assigned to `CN1CCc2c(c3ccccc3n2Cc2ccccc2)C1` in this test?
Result :: inactive
